TARGET_OR_TEST_SYSTEM: GMP-140 (Homo sapiens, UniProt P16109)
Construct: from tissue; host or cells: human platelets (outdated platelet packs from a blood bank)
Sequence (P16109 42-830): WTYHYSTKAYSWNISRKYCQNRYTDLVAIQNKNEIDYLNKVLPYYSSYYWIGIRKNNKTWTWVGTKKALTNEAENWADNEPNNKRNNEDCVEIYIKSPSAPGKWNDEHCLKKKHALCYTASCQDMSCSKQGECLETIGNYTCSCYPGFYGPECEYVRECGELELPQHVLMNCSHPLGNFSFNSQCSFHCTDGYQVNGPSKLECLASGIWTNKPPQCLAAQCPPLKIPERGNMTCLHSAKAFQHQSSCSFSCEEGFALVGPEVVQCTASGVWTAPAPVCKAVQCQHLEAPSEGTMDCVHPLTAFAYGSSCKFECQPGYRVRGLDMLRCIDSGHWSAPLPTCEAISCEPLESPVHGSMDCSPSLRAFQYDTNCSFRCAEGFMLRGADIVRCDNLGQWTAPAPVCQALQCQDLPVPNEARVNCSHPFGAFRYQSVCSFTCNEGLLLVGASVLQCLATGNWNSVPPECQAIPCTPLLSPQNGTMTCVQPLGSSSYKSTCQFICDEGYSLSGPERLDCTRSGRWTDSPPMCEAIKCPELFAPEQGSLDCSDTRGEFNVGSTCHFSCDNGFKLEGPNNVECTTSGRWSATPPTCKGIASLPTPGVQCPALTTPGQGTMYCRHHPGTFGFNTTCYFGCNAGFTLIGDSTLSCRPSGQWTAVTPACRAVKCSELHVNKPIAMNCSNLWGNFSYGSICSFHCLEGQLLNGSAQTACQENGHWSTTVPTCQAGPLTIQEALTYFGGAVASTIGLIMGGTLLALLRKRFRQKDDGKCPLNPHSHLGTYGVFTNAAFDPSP
EXPERIMENT: Inhibition of neutrophil binding to GMP-140 coated wells
Type: cell-based
STATED_CONDITIONS: peptide concentration 0.5 mM; human neutrophils, immobilized GMP-140
No end group written: not given here.
MEASUREMENT_NAME: Percent inhibition of neutrophil binding to GMP-140 (%)
Write the answer as a number in %, unit excluded.

Example substances with recorded Percent inhibition of neutrophil binding to GMP-140:
INSERT INTO measurements (substance, result_unit, measured_value) VALUES
  ('RKNNKTWTWV-NH2 [RKNNKTWTWV-NH2]', '%', 30),
  ('Arg-Lys-Asn-Asn-Lys-Thr-Trp-Thr-Trp-Glu-NH2 (RKNNKTWTWE-NH2)', '%', 20),
  ('Tyr-Lys-Asn-Asn-Lys-Thr-Trp-Thr-Trp-Val-NH2 (YKNNKTWTWV-NH2)', '%', 98),
  ('RKNNKTWT-NH2', '%', 23);

Here is another substance to look at.
Request: Specify measured Percent inhibition of neutrophil binding to GMP-140 for Ac-Arg-Lys-Asn-Asn-Lys-Thr-Trp-Thr-Trp-Val-NH2 (Ac-RKNNKTWTWV-NH2) .
Response: 50
